# Test system: HL-60(TB) leukemia
# assay-method-text: NCI tumour cell line growth inhibition, 48 h
test-readout: TGI

Worked cases, TGI given:
Oc1cc2ccccc2c(-c2c(O)c(O)cc3ccccc23)c1O = > 20.6 µM
Clc1ccc(OCc2nnc3n2N=C(c2ccc(Cl)cc2Cl)CS3)cc1 = > 100 µM
Nc1nc2c(ncn2Cc2ccccc2CO)c(=O)[nH]1 = > 100 µM
CS(=O)(=O)CC(=O)c1ccccc1 = > 100 µM
O=C(CSc1nc2ccc(I)cc2c(=O)n1Cc1ccccc1)NNC(=O)c1ccccc1 = > 100 µM

Provide TGI for all items below, preserving their order.
1. COC(=O)C1=C(C(=O)OC)C2(C)Nc3ccccc3C2=C(c2ccccc2)C1 (stereo unspecified)
2. CCCCCCCCCCCCOC1C(CNC(=O)C2OC3OC(C)(C)OC3C2NC(=O)Nc2ccc(CC(=O)NC(Cc3ccccc3)C(=O)O)cc2)OC2OC(C)(C)OC21 (stereo unspecified)
3. C/C(=N\Nc1nc2cccnc2s1)c1ccccn1
4. NCCNCc1c2ccccc2c(CNCCN)c2ccccc12
5. Fc1ccc(-c2sc(-c3cccs3)cc2Cc2cccs2)cc1

1. 41.5 µM
2. > 25 µM
3. > 100 µM
4. 58.6 µM
5. > 100 µM

So what's the measured TGI for this one? COc1ccc(Nc2cc(C)nc(NCCCNc3ccnc4cc(Cl)ccc34)n2)cc1 5.66 µM

* * *

# Tested on: SK-MEL-28 melanoma
# assay-method-text: NCI tumour cell line growth inhibition, 48 h
Exercise: for every item that follows, state its recorded TGI.

Worked cases, TGI given:
O=C(Nc1ccccc1)c1cc(S(=O)(=O)Nc2nc3ccccc3o2)c(SCc2ccccc2)cc1Cl = 51.9 µM
Clc1ccc(-c2cc(-c3ccccc3)nc(NCCNc3ccnc4cc(Cl)ccc34)n2)cc1 = 3.19 µM
O=C1CSC(c2c[nH]c3ccccc23)N1c1ccccc1[N+](=O)[O-] (centres undefined) = > 100 µM
COc1cccc(NC(=O)C(=O)C(C(=O)c2ccccc2F)C2OC(=O)c3ccccc32)c1 (centres undefined) = > 100 µM
COc1ccc(-n2ccnc2-c2cc(OC)c(OC)c(OC)c2)cc1 = > 100 µM
CCOC(=O)c1[nH]cc(C)c1-c1ccc2c(-c3ccccc3)nc3ccccc3n12 = 14.3 µM
O=c1c2cc(Cl)cc(Cl)c2oc2nc3n(c(=O)c12)CCCS3 = > 100 µM
O=C(O)CCCc1ccc2ccccc2c1 = > 100 µM

Provide TGI for all items below, preserving their order.
1. Cn1c(NCC(O)CN2CCCC2)cc(=O)n(C)c1=O (centres undefined)
2. CSC12c3cc(C)n(-c4ccccc4)c3CC(C)(C)CN1C(=O)C2Oc1ccccc1 (centres undefined)
3. O=C1c2cccc(NCCN=Cc3ccccc3O)c2C(=O)c2c(NCCN=Cc3ccccc3O)cccc21
4. COc1ccc2nc3cc(Cl)ccc3c(Sc3ccc([N+](=O)[O-])cc3)c2c1
5. Cc1cc(N(CCCl)CCCl)ccc1C=Nc1ccc2ccccc2c1
6. CC(=O)OC1CC2C3CCC4C[C@@H](NC(=O)C=C(C)C)CC[C@]4(C)C3CC[C@]2(C)[C@H]1C(C)N(C)C (some centres undefined)

1. > 100 µM
2. > 100 µM
3. 3.37 µM
4. > 100 µM
5. > 100 µM
6. 3.39 µM

Provide TGI for all items below, preserving their order.
1. CC(C)(C)c1cc2c(O)c(c1)Cc1cc(C(C)(C)C)cc(c1O)Cc1cc(C(C)(C)C)cc(c1O)Cc1cc(C(C)(C)C)cc(c1O)Cc1cc(C(C)(C)C)cc(c1O)Cc1cc(C(C)(C)C)cc(c1O)Cc1cc(C(C)(C)C)cc(c1O)Cc1cc(C(C)(C)C)cc(c1O)C2
2. Cc1nnc(N)nc1/C=C/c1c(O)ccc2ccccc12

["> 50 µM", "> 100 µM"]

Provide TGI for all items below, preserving their order.
1. Fc1ccc(-c2sc(-c3cccs3)cc2Cc2cccs2)cc1
2. COc1ccc(C2C=C(c3ccc4c(c3)OCO4)Oc3c2c(=O)oc2ccccc32)cc1OC (centres undefined)
3. O=S(=O)(/N=c1/scc(-c2ccccc2)n1-c1ccccc1)c1ccc(N2N=C3c4ccccc4CC3C2c2cccs2)cc1 (centres undefined)

1: > 100 µM; 2: > 100 µM; 3: > 100 µM
